Listing of recorded log10 IC50 by entry.
Target: hG-V sPLA2 (Homo sapiens)
Sequence (P39877 21-138): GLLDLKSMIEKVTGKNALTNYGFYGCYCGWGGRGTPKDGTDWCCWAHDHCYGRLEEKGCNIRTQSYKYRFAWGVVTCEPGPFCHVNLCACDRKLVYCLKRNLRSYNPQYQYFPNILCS
Assay: Inhibition of sPLA2 activity, colorimetric lecithin/red phenol assay, group V
Type: biochemical
Conditions: ± standard deviation, duplicate; read-out: IC50 (µM) Against Phospholipase hG-V
// units: µM (pre-log); metric: IC50; scale: log10

Past entries and their recorded results:
smiles_data	numeric_value
O=c1[nH]c2ccccc2n2c(-c3ccc(O)cc3O)nnc12	0.02
COc1cccc(-c2nnc3c(=O)[nH]c4ccccc4n23)c1	1.20
O=c1[nH]c2ccccc2n2c(-c3cccs3)nnc12	1.27
O=c1[nH]c2ccccc2n2c(-c3ccc(Cl)c(Cl)c3)nnc12	0.48

Recorded log10 IC50 (compound COc1cc(-c2nnc3c(=O)[nH]c4ccccc4n23)cc(OC)c1OC ): 1.05

Record O=c1[nH]c2ccccc2nc1N/N=C/c1ccc(O)cc1O . Reported log10 IC50: 0.98

Entry COc1cc(/C=N/Nc2nc3ccccc3[nH]c2=O)cc(OC)c1OC , log10 IC50 reported as 0.16

###

measurement_name: melting point

smiles_data	melting point
COc1cc(-c2nnc3c(=O)[nH]c4ccccc4n23)cc(OC)c1OC	227 to 229 °C
COc1cccc(-c2nnc3c(=O)[nH]c4ccccc4n23)c1	286 to 288 °C
O=c1[nH]c2ccccc2n2c(-c3ccc(O)cc3O)nnc12	> 300 °C
O=c1[nH]c2ccccc2nc1N/N=C/c1ccc([N+](=O)[O-])cc1[N+](=O)[O-]	283 to 285 °C
O=c1[nH]c2ccccc2nc1N/N=C/c1ccc(Cl)c(Cl)c1	244 to 246 °C

// field: melting point; key: O=c1[nH]c2ccccc2nc1N/N=C/c1ccc(O)cc1O ; value = 292 to 294 °C

COc1cc(/C=N/Nc2nc3ccccc3[nH]c2=O)cc(OC)c1OC has a reported melting point of 258 to 260 °C

Measured melting point, O=c1[nH]c2ccccc2n2c(-c3ccc([N+](=O)[O-])cc3[N+](=O)[O-])nnc12 : > 300 °C

###

Biological target: hG-IIA sPLA2 (Homo sapiens, UniProt P14555)
Sequence (P14555 21-144): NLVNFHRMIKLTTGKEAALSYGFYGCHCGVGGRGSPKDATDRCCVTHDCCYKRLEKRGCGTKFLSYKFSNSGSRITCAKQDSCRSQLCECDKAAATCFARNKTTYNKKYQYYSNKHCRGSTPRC
Experiment: Inhibition of sPLA2 activity, colorimetric lecithin/red phenol assay, group IIA
Type: biochemical
Details: ± standard deviation, duplicate; read-out: IC50 (µM) Against Phospholipase hG-IIA
measurement_name: IC50 (µM)
Report the figure in µM without appending any unit label.

The cases that follow already have their IC50 on record.
smiles_data	assay_target	IC50 / µM
O=c1[nH]c2ccccc2n2c(-c3cccs3)nnc12	hG-IIA sPLA2 (Homo sapiens, UniProt P14555)	16.8
O=c1[nH]c2ccccc2n2c(-c3ccc(Cl)c(Cl)c3)nnc12	hG-IIA sPLA2 (Homo sapiens, UniProt P14555)	1.81

The recorded IC50 for COc1cc(/C=N/Nc2nc3ccccc3[nH]c2=O)cc(OC)c1OC is 2.48

Lookup result for O=c1[nH]c2ccccc2nc1N/N=C/c1cccs1 ; measured IC50: 2.81

Recorded result, COc1cccc(/C=N/Nc2nc3ccccc3[nH]c2=O)c1 , IC50: 1.9

Value of IC50 reported for the molecule O=c1[nH]c2ccccc2nc1N/N=C/c1ccc(Cl)c(Cl)c1 is 4.5

IC50 recorded for this molecule, COc1cccc(-c2nnc3c(=O)[nH]c4ccccc4n23)c1 , is 17.1

###

biological target: UniProtKB P39877; assay: Inhibition of sPLA2 activity, colorimetric lecithin/red phenol assay, group V; format: biochemical; settings: ± standard deviation, duplicate; read-out: IC50 (µM) Against Phospholipase hG-V
Reported IC50 values for a set of compounds
Give your result in µM as a bare value.

Guide cases for IC50, answers given:
compound	IC50 / µM
COc1cccc(/C=N/Nc2nc3ccccc3[nH]c2=O)c1	1.22
O=c1[nH]c2ccccc2nc1N/N=C/c1cccs1	6.28
CC1(C)CC[C@]2(C(=O)O)CC[C@]3(C)C(=CC[C@@H]4[C@@]5(C)CC[C@H](O)C(C)(C)[C@@H]5CC[C@]43C)[C@@H]2C1 [Oleanolic acid, reference compound]	16.4

// next item, IC50 requested
Sample O=c1[nH]c2ccccc2nc1N/N=C/c1ccc(Cl)c(Cl)c1 ; IC50 observed: 5.7

###

biological target: pG-IB sPLA2 (Sus scrofa); assay: Inhibition of sPLA2 activity, colorimetric lecithin/red phenol assay, group IB; format: biochemical, porcine; details: ± standard deviation, duplicate; read-out: IC50 (µM) Against Phospholipase pG-IB
Sequence (P00592 23-146): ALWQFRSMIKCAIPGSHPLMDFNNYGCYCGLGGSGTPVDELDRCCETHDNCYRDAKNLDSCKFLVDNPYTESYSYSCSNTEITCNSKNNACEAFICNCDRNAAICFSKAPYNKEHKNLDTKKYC
Overview of recorded IC50 for various molecules
Provide only the numeric value, understood in µM.

Solved entries (count: 9):
smiles_data	assay_target	IC50 / µM
O=c1[nH]c2ccccc2nc1N/N=C/c1ccc(O)cc1O	pG-IB sPLA2 (Sus scrofa)	13.3
O=c1[nH]c2ccccc2n2c(-c3cccs3)nnc12	pG-IB sPLA2 (Sus scrofa)	16.8
COc1cccc(-c2nnc3c(=O)[nH]c4ccccc4n23)c1	pG-IB sPLA2 (Sus scrofa)	16
O=c1[nH]c2ccccc2nc1N/N=C/c1ccc(Cl)c(Cl)c1	pG-IB sPLA2 (Sus scrofa)	13.5
COc1cccc(/C=N/Nc2nc3ccccc3[nH]c2=O)c1	pG-IB sPLA2 (Sus scrofa)	12.4
COc1cc(/C=N/Nc2nc3ccccc3[nH]c2=O)cc(OC)c1OC	pG-IB sPLA2 (Sus scrofa)	9.31
O=c1[nH]c2ccccc2nc1N/N=C/c1cccs1	pG-IB sPLA2 (Sus scrofa)	10.7
O=c1[nH]c2ccccc2n2c(-c3ccc(Cl)c(Cl)c3)nnc12	pG-IB sPLA2 (Sus scrofa)	14.5
COc1cc(-c2nnc3c(=O)[nH]c4ccccc4n23)cc(OC)c1OC	pG-IB sPLA2 (Sus scrofa)	14.2

Turning now to a further molecule:
Quick note, IC50 for O=c1[nH]c2ccccc2n2c(-c3ccc(O)cc3O)nnc12 landed at 14.8

###

target: hG-X sPLA2 (Homo sapiens); experiment: Inhibition of sPLA2 activity, colorimetric lecithin/red phenol assay, group X; assay type: biochemical; details: ± standard deviation, duplicate; read-out: IC50 (µM) Against Phospholipase hG-X
Sequence (O15496 43-165): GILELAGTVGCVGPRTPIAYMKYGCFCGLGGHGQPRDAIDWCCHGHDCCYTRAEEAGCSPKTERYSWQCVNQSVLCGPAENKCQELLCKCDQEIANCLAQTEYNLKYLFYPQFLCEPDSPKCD
measurement_name: IC50 (µM)
// units = µM; emit number, no label

Use these answered entries as a reference point.
molecule	measurement_name	numeric_value
COc1cccc(/C=N/Nc2nc3ccccc3[nH]c2=O)c1 [Compound 3f]	IC50	0.33
O=c1[nH]c2ccccc2n2c(-c3ccc(Cl)c(Cl)c3)nnc12 [Compound 4d]	IC50	2.71

Memo: COc1cc(-c2nnc3c(=O)[nH]c4ccccc4n23)cc(OC)c1OC [Compound 4a] , reported IC50: 12.2

According to the records, this molecule O=c1[nH]c2ccccc2n2c(-c3cccs3)nnc12 [Compound 4e] displays IC50 of 17.9

The recorded IC50 for entry O=c1[nH]c2ccccc2n2c(-c3ccc(O)cc3O)nnc12 [Compound 4c] equals 0.61

Item: O=c1[nH]c2ccccc2nc1N/N=C/c1ccc(Cl)c(Cl)c1 [Compound 3d] | IC50: 3

Form: molecule = O=c1[nH]c2ccccc2nc1N/N=C/c1cccs1 [Compound 3e] ; IC50 = 4.43

The molecule listed as COc1cccc(-c2nnc3c(=O)[nH]c4ccccc4n23)c1 [Compound 4f] has a reported IC50 of 14.4

Reported IC50 ( COc1cc(/C=N/Nc2nc3ccccc3[nH]c2=O)cc(OC)c1OC [Compound 3a] ) = 1.26

Reported IC50 of O=c1[nH]c2ccccc2nc1N/N=C/c1ccc(O)cc1O [Compound 3c] : 12.5

###

Molecular target: hG-V sPLA2 (Homo sapiens)
Sequence (P39877 21-138): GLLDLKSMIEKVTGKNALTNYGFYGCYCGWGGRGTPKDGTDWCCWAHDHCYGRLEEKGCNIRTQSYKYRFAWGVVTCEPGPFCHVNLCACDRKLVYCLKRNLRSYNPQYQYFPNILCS
Experiment: Inhibition of sPLA2 activity, colorimetric lecithin/red phenol assay, group V
Type: biochemical
Measured IC50, listed per entry.
Note: unit nM is implicit; provide only the numeric part.

smiles_data	units_label	numeric_value
O=c1[nH]c2ccccc2nc1N/N=C/c1ccc([N+](=O)[O-])cc1[N+](=O)[O-]	nM	1120

Sure, the documented IC50 for O=c1[nH]c2ccccc2n2c(-c3ccc([N+](=O)[O-])cc3[N+](=O)[O-])nnc12 is 1530
